Target: T1, human OPGbp [143-317] (human, UniProt O14788 143-317)
T1 construct: also called OPGL
T1 sequence (looked up): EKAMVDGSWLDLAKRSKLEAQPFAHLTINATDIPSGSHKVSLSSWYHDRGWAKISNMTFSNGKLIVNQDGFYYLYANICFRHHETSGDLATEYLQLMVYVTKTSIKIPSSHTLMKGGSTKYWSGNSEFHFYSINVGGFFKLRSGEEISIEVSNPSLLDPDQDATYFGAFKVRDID
Assay: SPR (BIAcore), immobilized OPGbp [143-317]
Measure: binding result

Before answering, review these 4 worked examples.
# Binder, binding result
rows = [
    ("“AT” antibody variant S97W (heavy chain CDR3) (antibody, name in Kabat numbering, V domains shown, not shown: human IgG1 CH1, hinge, CH2 and CH3) VH: QVQLVQSGAEVRKPGASVKVSCKASGYDFSNYAIHWVRQAPGQRLEWMGWINAGNGNTKFSQKFQGRITVTRDTAASTAYMELRSLRSEDTAVYYCARDSWNMVRGIIIAYYFDYWGQGTLVTVSS VL: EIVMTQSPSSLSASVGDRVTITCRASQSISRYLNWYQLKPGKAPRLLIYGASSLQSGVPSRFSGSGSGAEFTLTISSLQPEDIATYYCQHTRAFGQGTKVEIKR", "no binding"),
    ("“AT” antibody variant S97Y (heavy chain CDR3) (antibody, name in Kabat numbering, V domains shown, not shown: human IgG1 CH1, hinge, CH2 and CH3) VH: QVQLVQSGAEVRKPGASVKVSCKASGYDFSNYAIHWVRQAPGQRLEWMGWINAGNGNTKFSQKFQGRITVTRDTAASTAYMELRSLRSEDTAVYYCARDSYNMVRGIIIAYYFDYWGQGTLVTVSS VL: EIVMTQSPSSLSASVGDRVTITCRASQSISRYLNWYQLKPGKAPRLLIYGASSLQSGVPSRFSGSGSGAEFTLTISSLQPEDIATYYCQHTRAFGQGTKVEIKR", "no binding"),
    ("“AT” antibody variant S97F (heavy chain CDR3) (antibody, name in Kabat numbering, V domains shown, not shown: human IgG1 CH1, hinge, CH2 and CH3) VH: QVQLVQSGAEVRKPGASVKVSCKASGYDFSNYAIHWVRQAPGQRLEWMGWINAGNGNTKFSQKFQGRITVTRDTAASTAYMELRSLRSEDTAVYYCARDSFNMVRGIIIAYYFDYWGQGTLVTVSS VL: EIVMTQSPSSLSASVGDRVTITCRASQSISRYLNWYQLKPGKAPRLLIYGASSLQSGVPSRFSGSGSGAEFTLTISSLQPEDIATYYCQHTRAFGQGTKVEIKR", "no binding"),
    ("“AT” antibody variant S97G (heavy chain CDR3) (antibody, name in Kabat numbering, V domains shown, not shown: human IgG1 CH1, hinge, CH2 and CH3) VH: QVQLVQSGAEVRKPGASVKVSCKASGYDFSNYAIHWVRQAPGQRLEWMGWINAGNGNTKFSQKFQGRITVTRDTAASTAYMELRSLRSEDTAVYYCARDSGNMVRGIIIAYYFDYWGQGTLVTVSS VL: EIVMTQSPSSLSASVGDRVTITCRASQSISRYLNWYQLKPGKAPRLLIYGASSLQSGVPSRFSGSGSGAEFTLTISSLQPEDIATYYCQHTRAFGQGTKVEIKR", "no binding"),
]

Moving on to the next binder.
binding result in this record for “AT” antibody variant S97D (heavy chain CDR3) (antibody, name in Kabat numbering, V domains shown, not shown: human IgG1 CH1, hinge, CH2 and CH3) VH: QVQLVQSGAEVRKPGASVKVSCKASGYDFSNYAIHWVRQAPGQRLEWMGWINAGNGNTKFSQKFQGRITVTRDTAASTAYMELRSLRSEDTAVYYCARDSDNMVRGIIIAYYFDYWGQGTLVTVSS VL: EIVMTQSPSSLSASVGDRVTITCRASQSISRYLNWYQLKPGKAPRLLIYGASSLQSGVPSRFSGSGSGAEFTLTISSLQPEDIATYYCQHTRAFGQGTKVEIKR : no binding
